# Tgt: MERS Mpro (Middle East respiratory syndrome-related coronavirus, UniProt K9N7C7)
# Sequence (K9N7C7 3248-3553 limits assumed): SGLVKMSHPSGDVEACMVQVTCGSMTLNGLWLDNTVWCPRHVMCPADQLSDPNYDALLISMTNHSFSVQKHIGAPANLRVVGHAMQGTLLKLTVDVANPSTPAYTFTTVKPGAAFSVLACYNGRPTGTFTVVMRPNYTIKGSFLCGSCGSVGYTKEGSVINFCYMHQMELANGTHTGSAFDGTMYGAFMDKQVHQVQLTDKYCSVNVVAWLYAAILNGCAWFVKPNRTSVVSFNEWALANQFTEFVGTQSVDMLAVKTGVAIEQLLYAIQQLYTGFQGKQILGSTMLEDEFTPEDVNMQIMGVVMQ
# Experiment description: biochemical
# Parameters: species or system MERS-CoV
pIC50: −log10 of the molar value.
Item-by-item account of pIC50
Parameter measured: pIC50

• O=C[C@H](C[C@@H]1CCNC1=O)NC(=O)[C@@H]1CCCN1C(=O)c1cc2ccccc2[nH]1 = 5.76
• CC1(C)[C@@H]2[C@@H](C(=O)N[C@H](C=O)C[C@@H]3CCCNC3=O)N(C(=O)c3cc4cccc(Cl)c4[nH]3)C[C@@H]21 = 6.85
• CC1(C)[C@@H]2[C@@H](C(=O)N[C@H](C=O)C[C@@H]3CCNC3=O)N(C(=O)c3cc4ccccc4[nH]3)C[C@@H]21 = 6.56
• O=C[C@H](C[C@@H]1CCNC1=O)NC(=O)[C@@H]1CC2(CC2)CN1C(=O)c1cc2ccccc2[nH]1 = 6.86
• CC1(C)[C@@H]2[C@@H](C(=O)N[C@H](C=O)C[C@@H]3CCNC3=O)N(C(=O)CC3CCOCC3)C[C@@H]21 = 6.50
• C=C1C[C@@H](C(=O)N[C@H](C=O)C[C@@H]2CCNC2=O)N(C(=O)c2cc3ccccc3[nH]2)C1 = 6.54

----------
# Tgt: UniProtKB P0C6X2
# Sequence (P0C6X2 3335-3637 limits assumed): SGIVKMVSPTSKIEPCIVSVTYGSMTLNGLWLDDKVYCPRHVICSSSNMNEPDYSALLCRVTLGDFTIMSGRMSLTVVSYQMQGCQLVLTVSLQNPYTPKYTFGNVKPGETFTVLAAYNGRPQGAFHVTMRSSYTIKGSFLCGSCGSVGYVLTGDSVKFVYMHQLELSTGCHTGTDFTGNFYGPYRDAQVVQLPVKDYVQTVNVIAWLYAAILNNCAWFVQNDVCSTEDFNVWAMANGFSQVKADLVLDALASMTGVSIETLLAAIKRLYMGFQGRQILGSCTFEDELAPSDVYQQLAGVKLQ
# Experiment description: HCoV-HKU1 Mpro enzymatic inhibition assay (fluorescence)
# Type: biochemical
pIC50: −log10 of the molar value.
Decide using pIC50: a value greater than or equal to 7 is True, a smaller one is False.

• CC(C)(C)CCC(=O)N1C[C@H]2[C@@H]([C@H]1C(=O)N[C@H](C=O)C[C@@H]1CCNC1=O)C2(C)C = True
• CC1(C)[C@@H]2[C@@H](C(=O)N[C@H](C#N)C[C@@H]3CCNC3=O)N(C(=O)C3(c4ccccc4)CC3)C[C@@H]21 = False
• O=C[C@H](C[C@@H]1CCNC1=O)NC(=O)[C@@H]1C[C@@H](C2CCCCC2)CN1C(=O)c1cc2cccc(Cl)c2[nH]1 = True
• COc1ccc2cc(C(=O)N3C[C@H]4[C@@H]([C@H]3C(=O)N[C@H](C=O)C[C@@H]3CCNC3=O)C4(C)C)[nH]c2c1 = True
• CO[C@@H]1C[C@@H](C(=O)N[C@H](C=O)C[C@@H]2CCNC2=O)N(C(=O)c2cc3ccccc3[nH]2)C1 = False
• Cc1cccc2[nH]c(C(=O)N3C[C@H]4[C@@H]([C@H]3C(=O)N[C@H](C=O)C[C@@H]3CCNC3=O)C4(C)C)cc12 = True
• CC1(C)[C@@H]2[C@@H](C(=O)N[C@H](C=O)C[C@@H]3CCNC3=O)N(C(=O)c3cc4c(C#N)cccc4[nH]3)C[C@@H]21 = True
• CC(C)(C)[C@H](NC(=O)C(F)(F)F)C(=O)N1C[C@H]2[C@@H]([C@H]1C(=O)N[C@H](C=O)C[C@@H]1CCNC1=O)C2(C)C = True
• N#Cc1cccc2[nH]c(C(=O)N3CC4(CC4)C[C@H]3C(=O)N[C@H](C=O)C[C@@H]3CCNC3=O)cc12 = True

----------
# Tgt: MERS Mpro (Middle East respiratory syndrome-related coronavirus, UniProt K9N7C7)
# Experiment description: biochemical
# Set-up: species or system MERS-CoV
pIC50: −log10 of the molar value.
Reported pIC50 values for a set of molecules
Parameter measured: pIC50

- COc1cccc2[nH]c(C(=O)N3CC4(CC4)C[C@H]3C(=O)N[C@H](C=O)C[C@@H]3CCNC3=O)cc12 [Compound 31]: 6.73
- CC1(C)[C@@H]2[C@@H](C(=O)N[C@H](C=O)C[C@@H]3CCNC3=O)N(C(=O)CC3CCC(F)(F)CC3)C[C@@H]21 [Compound 16]: 6.80
- O=C1NCC[C@H]1C[C@H](NC(=O)[C@@H]1CC2(CC2)CN1C(=O)c1cc2ccccc2[nH]1)C(=O)c1nc2ccccc2s1 [Compound 127]: 6.39
- CC1(C)[C@@H]2[C@@H](C(=O)N[C@H](C=O)C[C@@H]3CCNC3=O)N(C(=O)c3cc4c(F)ccc(Cl)c4[nH]3)C[C@@H]21 [Compound 49]: 6.70
- O=C[C@H](C[C@@H]1CCNC1=O)NC(=O)[C@@H]1CC2(CCC2)CN1C(=O)C1(c2ccccc2)CC1 [Compound 84]: 6.15
- CC1CC(C(=O)N2C[C@H]3[C@@H]([C@H]2C(=O)N[C@H](C=O)C[C@@H]2CCNC2=O)C3(C)C)C1 (stereo partly shown) [Compound 110]: 5.93
- Cc1ccc2[nH]c(C(=O)N3C[C@H]4[C@@H]([C@H]3C(=O)N[C@H](C=O)C[C@@H]3CCNC3=O)C4(C)C)cc2c1 [Compound 93]: 6.50
- CC1(C)[C@@H]2[C@@H](C(=O)N[C@H](C=O)C[C@@H]3CCCNC3=O)N(C(=O)c3cc4ccccc4[nH]3)C[C@@H]21 [Compound 11]: 6.64
- CC1(C)[C@@H]2[C@@H](C(=O)N[C@H](C=O)C[C@@H]3CCNC3=O)N(C(=O)c3cc4cccc(Cl)c4[nH]3)C[C@@H]21 [Compound 5]: 6.83
- CC1(C)[C@@H]2[C@@H](C(=O)N[C@H](C=O)C[C@@H]3CCNC3=O)N(C(=O)c3cc4c(F)cc(F)cc4[nH]3)C[C@@H]21 [Compound 20]: 6.56
- CC1(C)[C@@H]2[C@@H](C(=O)N[C@H](C=O)C[C@@H]3CCNC3=O)N(C(=O)c3cc4c(F)cccc4[nH]3)C[C@@H]21 [Compound 15]: 6.76
- O=C[C@H](C[C@@H]1CCNC1=O)NC(=O)[C@@H]1CC2(CC2)CN1C(=O)c1cc2c(F)cccc2[nH]1 [Compound 3]: 6.96
- O=C[C@H](C[C@@H]1CCNC1=O)NC(=O)[C@@H]1CC2(CC2)CN1C(=O)CC1CCCCC1 [Compound 126]: 6.45

----------
# Tgt: SARS-CoV-2 Mpro (Severe acute respiratory syndrome coronavirus 2)
# Experiment description: SARS-CoV-2 Mpro enzymatic inhibition assay (fluorescence)
# Type: biochemical
# Conditions: mean; 25 nM protein, 25 μM substrate; 30 min pre-incubation, 60 min at 30° C.; read-out: Mpro_SARS-CoV-2 mean IC50
pIC50: −log10 of the molar value.
Parameter measured: pIC50

- CC(C)(C)CC(=O)N1C[C@H]2[C@@H]([C@H]1C(=O)N[C@H](C=O)C[C@@H]1CCNC1=O)C2(C)C: 7.34
- CC(C)(C(=O)N1C[C@H]2[C@@H]([C@H]1C(=O)N[C@H](C=O)C[C@@H]1CCNC1=O)C2(C)C)c1ccccc1: 7.64
- COc1cccc2cc(C(=O)N3C[C@H]4[C@@H]([C@H]3C(=O)N[C@H](C=O)C[C@@H]3CCNC3=O)C4(C)C)[nH]c12: 7.36
- CC1(C)[C@@H]2[C@@H](C(=O)N[C@H](C=O)C[C@@H]3CCNC3=O)N(C(=O)CC3CCCCC3)C[C@@H]21: 7.60
- CC1(C)[C@@H]2[C@@H](C(=O)N[C@H](C=O)C[C@@H]3CCNC3=O)N(C(=O)C3(O)CCCCC3)C[C@@H]21: 7.35
- CC(C)c1ccc(Cl)c2[nH]c(C(=O)N3C[C@H]4[C@@H]([C@H]3C(=O)N[C@H](C=O)C[C@@H]3CCNC3=O)C4(C)C)cc12: 7.39
- O=C[C@H](C[C@@H]1CCNC1=O)NC(=O)[C@@H]1CC2(CC2)CN1C(=O)c1cc2ccccc2[nH]1: 7.64
- COc1cccc2[nH]c(C(=O)N3C[C@H]4[C@@H]([C@H]3C(=O)N[C@H](C=O)C[C@@H]3CCNC3=O)C4(C)C)cc12: 7.57
- Cc1cccc([C@@H](C)C(=O)N2C[C@H]3[C@@H]([C@H]2C(=O)N[C@H](C=O)C[C@@H]2CCNC2=O)C3(C)C)c1: 7.96
- O=C[C@H](C[C@@H]1CCNC1=O)NC(=O)[C@@H]1CCCN1C(=O)c1cc2ccccc2[nH]1: 6.30
- CC1(C)C[C@@H](C(=O)N[C@H](C=O)C[C@@H]2CCNC2=O)N(C(=O)c2cc3ccccc3[nH]2)C1: 7.59
- CC(C)(C)CCC(=O)N1C[C@H]2[C@@H]([C@H]1C(=O)N[C@H](C=O)C[C@@H]1CCNC1=O)C2(C)C: 7.50
- CC1(C)[C@@H]2[C@@H](C(=O)N[C@H](C=O)C[C@@H]3CCNC3=O)N(C(=O)c3cc4ccccc4[nH]3)C[C@@H]21: 7.58
- O=C[C@H](C[C@@H]1CCNC1=O)NC(=O)[C@@H]1C[C@@H](C2CCCCC2)CN1C(=O)c1cc2ccccc2[nH]1: 7.58
- CC1(C)[C@@H]2[C@@H](C(=O)N[C@H](C=O)C[C@@H]3CCNC3=O)N(C(=O)C3CCCC3)C[C@@H]21: 6.68
- C[C@H](C(=O)N1C[C@H]2[C@@H]([C@H]1C(=O)N[C@H](C=O)C[C@@H]1CCNC1=O)C2(C)C)c1ccccc1: 7.19
- C[C@H](C(=O)N1C[C@H]2[C@@H]([C@H]1C(=O)N[C@H](C=O)C[C@@H]1CCNC1=O)C2(C)C)C1CCCCC1: 7.35
